Ref: PubChem BioAssay (NCI)

- Experimental Details: NCI Yeast Anticancer Drug Screen. Data for the bub3 strain (AID 167)
- Experimental Context: S. cerevisiae bub3 mutant strain, at 50.0 µM, hits give high values
About 79,000 compounds went through this panel and 15% of them were active in at least one assay; those are over-represented in the sample as a whole.
Experimental Endpoint: growth inhibition (%)

| Compound | Scale Unit | Recorded Value |
| --- | --- | --- |
| O=C(O)c1ccccc1NC(=S)c1ccccc1 | % | 17.4 |
| O=C(NNc1ccnc2cc(Cl)ccc12)/C(=C\c1ccccc1Cl)NC(=O)c1ccccc1 | % | 85.8 |
| O=C(c1ccc(Cl)cc1Cl)C(Cl)Cl | % | 88.8 |
| CC(O)C(O)C(O)C(/C=N\Nc1ccccc1)=N/Nc1ccccc1 (stereo not given) | % | 69.1 |
| CCC(=O)Oc1c(Cl)cc(Cl)c2ccccc12 | % | 12.1 |
| Oc1cccc2c(Cl)ccnc12 | % | 92.8 |
| O=[N+]([O-])c1ccc([N+]2=NC(c3ccccc3)=NN(c3ccccc3)C2)cc1 | % | 78 |
| CCCCCCc1cc(C(=O)OC/C(C)=N/NC(N)=O)c2ccccc2n1 | % | 68.5 |
| N#Cc1ccc(C2NN=CC23C(=O)c2ccccc2OC3c2ccccc2)cc1 (stereo not given) | % | 64 |
| Nc1ncncc1C(C1=C(O)COC1=O)C1=C(O)COC1=O | % | -6.55 |
| CC(=O)N/N=C/C(C)(C)C(C)(C)/C=N/NC(C)=O | % | 35.4 |
| Clc1ccc(SC(/C=C/NNC2=NC(c3ccccc3)C(c3ccccc3)=NN2)c2ccccc2)cc1 (stereo not given) | % | 60.9 |
| CCCCCCCC1(N=[N+]=[N-])C(=O)c2ccccc2N(C)C1=O (stereo not given) | % | 64.5 |
| COC(=O)C1=C(C)NC(C)=C(C(=O)OC)C1c1cccc(/[N+]([O-])=C/c2ccccc2)c1 | % | 59.6 |
| CCC#CCCCOC(=O)c1cc([N+](=O)[O-])cc([N+](=O)[O-])c1 | % | 99.5 |
| O=C(NCCCCCCCN1CCCCCCC1)C(C1CCCCC1)C1CCCCC1 | % | 99 |
| Cc1ccc(CSC(N)=Nc2ccccc2)cc1C | % | 80 |
| COc1ccc(/C(C)=N/OC(=O)c2c(-c3ccccc3Cl)noc2C)cc1CN1CCOCC1 | % | 58.8 |
| O=C(CCCN1CCC2(CC1)CC(=O)N(N1CCCCCC1)C2=O)c1ccc(F)cc1 | % | 73.3 |
| Cc1c(Cl)ccc2c1S(=O)(=O)c1cccc(Cl)c1-2 | % | 81.3 |
| CCN(CC)CCNc1ccc([N+](=O)[O-])c2nc3ccc(OC)cc3c(N)c12 | % | -0.6 |
| C[S+](C)C1(c2ccccc2)C(=O)c2ccccc2C1=O | % | 35.9 |
| CCCS(=O)(=O)Nc1ccc(Nc2c3ccccc3nc3ccccc23)c(OC)c1 | % | 37.6 |
| CCOC(=O)c1cnc2c(C(F)(F)F)cccc2c1N=[N+]=[N-] | % | 67.3 |
| Brc1ccc(-c2cc3c(cc2C2SCCS2)OCO3)cc1 | % | 44.9 |
| N#CSc1ccc(S(N)(=O)=O)cc1 | % | 75.8 |
| N#Cc1c(N)[nH]c2ccc(Sc3ccccc3)cc12 | % | 52.4 |
| CC[n+]1ccc2c(C)c3[nH]c4ccc(O)cc4c3c(C)c2c1 | % | 5.2 |
| O=C(N=Nc1ccccc1Cl)NNc1ccccc1Cl | % | 49.1 |
| c1ccc2c(c1)C(=NCCCN1CCCCCC1)c1cccn1-2 | % | 94.9 |
| O=C(CC(=O)n1nc(-c2ccccc2)c(N=Nc2ccccc2C(=O)O)c1-c1ccccc1)Nc1ccc(Cl)cc1 | % | 88.7 |
| c1ccc2c(c1)sc1nc3ccncc3nc12 | % | 6.1 |
| COc1cc(C2SCC(=O)N2c2ccc(-c3ccc(-n4c(-c5ccccc5)nc5ccccc5c4=O)cc3)cc2)cc(OC)c1OC (stereo not given) | % | 71.7 |
| CN(C)Cc1cc(N=Nc2ccc(Cl)cc2)cc(CN(C)C)c1O | % | 91.2 |
| O=C1OC(CCl)CN1/N=C/c1ccc([N+](=O)[O-])o1 (stereo not given) | % | 10 |
| CCC(=O)OCCn1c2nc(=O)[nH]c(=O)c-2nc2cc(C)c(C)cc21 | % | 3.15 |
| CSC1=NNC(SC)=NN1 | % | 68.8 |
| OC(c1ccc(F)cc1)(c1ccc(F)cc1)C1CC1 | % | 64.8 |
| Cc1ccc(C2C(Cl)C(=O)N2n2cnc3ccccc3c2=O)cc1 (stereo not given) | % | 68.6 |
| COc1ccccc1C(=O)OCC1CCCN2CCCCC12 (stereo not given) | % | 90.8 |
| COC1C=COC2(C)Oc3c(C)c(O)c4c(c3C2=O)/C(=N/C2CCC(O)OC2C)C=C(NC(=O)/C(C)=C\C(=O)C2CC2C(O)C(C)C(O)C(C)C(OC(C)=O)C1C)C4=O (stereo not given) | % | 23.4 |
| S=C(Nc1ccc(Cl)c(Cl)c1)SCc1ccc2c(c1)OCO2 | % | 88.2 |
| CC1=C(C)Cc2c(O)ccc(O)c2C1 | % | 83 |
| CCN(CC)C(C)(C)C(=O)/C=C/c1ccccc1 | % | 17.8 |
| O=[N+]([O-])c1cc(CCl)ccc1CCl | % | 99.4 |
